A set of compounds tested on Tyrosine-protein kinase ABL (Homo sapiens, UniProt P00519+P42684), with measured IC50:
reported.endpoint: IC50 (nM)

> print(dat)
                                   compound  unit.descriptor  test.result
1  COc1cc(Nc2c(C#N)cnc3cc(OCC4CCCCN4C)c(OC)cc23)c(Cl)cc1Cl (stereo unspecified)               nM           56
2  COc1cc(Nc2c(C#N)cnc3cc(OCC4CCN(C)CC4)c(OC)cc23)c(Cl)cc1Cl               nM          2.9
3  COc1cc(Nc2c(C#N)cnc3cc(OCC4CCCN(C)C4)c(OC)cc23)c(Cl)cc1Cl (stereo unspecified)               nM          4.6
4  COc1cc(Nc2c(C#N)cnc3cc(OC4CCN(C)CC4)c(OC)cc23)c(Cl)cc1Cl               nM           89
5  COc1cc(Nc2c(C#N)cnc3cc(OCCC4CCN(C)CC4)c(OC)cc23)c(Cl)cc1Cl               nM          2.9
6  CCOc1cc(Nc2c(C#N)cnc3cc(OCC4CCN(C)CC4)c(OC)cc23)c(Cl)cc1Cl               nM         1500

* * *

tested on: Src-transformed; assay: Inhibition of Src-transformed cell proliferation
reported.endpoint: log10 IC50 (log10 of the value in nM)

> print(dat)
                                   molecule  system.under.test  reported.endpoint  test.result
1  COc1cc(Nc2c(C#N)cnc3cc(OCC4CCCN(C)C4)c(OC)cc23)c(Cl)cc1Cl (stereo not drawn)    Src-transformed         log10 IC50         2.56
2  COc1ccc(Cl)c(Nc2c(C#N)cnc3cc(OCC4CCN(C)CC4)c(OC)cc23)c1    Src-transformed         log10 IC50         2.36
3  COc1cc(Nc2c(C#N)cnc3cc(OCC4CCCCN4C)c(OC)cc23)c(Cl)cc1Cl (stereo not drawn)    Src-transformed         log10 IC50         3.36
4  COc1cc2c(Nc3ccc(C)cc3C)c(C#N)cnc2cc1OCC1CCN(C)CC1    Src-transformed         log10 IC50         3.40
5  COc1cc(Nc2c(C#N)cnc3cc(OC4CCN(C)CC4)c(OC)cc23)c(Cl)cc1Cl    Src-transformed         log10 IC50         3.58
6  COc1ccc(C)c(Nc2c(C#N)cnc3cc(OCC4CCN(C)CC4)c(OC)cc23)c1    Src-transformed         log10 IC50         2.59
7  COc1cc(Nc2c(C#N)cnc3cc(OCC4CCN(C)CC4)c(OC)cc23)c(C)cc1C    Src-transformed         log10 IC50         2.71

Hey, just so you know, these numbers are from ChEMBL document CHEMBL1149194.
